Catalogue of molecules with associated CC50
# testName: Cytostatic activity against African green monkey BSC1 cells by MTT assay
# Assay type: ADME, cell-based, BSC-1
# conditions: chlorocebus aethiops

{"molecule": "COc1ccc(-c2cc3cn(C4CC(CO)N(C)O4)c(=O)nc3o2)cc1 (racemic)", "CC50": "7 µM"}
{"molecule": "CCCc1cc2cn(C3CC(CO)N(C)O3)c(=O)nc2o1 (stereo not given)", "CC50": "7 µM"}
{"molecule": "CN1OC(n2cc3cc(-c4ccccc4)oc3nc2=O)CC1CO (racemic)", "CC50": "32 µM"}
{"molecule": "CN1OC(n2cc3ccoc3nc2=O)CC1CO (racemic)", "CC50": "62 µM"}
{"molecule": "CCCCCc1ccc(-c2cc3cn(C4CC(CO)N(C)O4)c(=O)nc3o2)cc1 (racemic)", "CC50": "0.7 µM"}

###

# testName: Cytostatic activity against African green monkey Vero cells by MTT assay
# Format: ADME, cell-based
# conditions: chlorocebus sabaeus
readoutLabel: CC50 (µM)

{"compound": "CN1OC(n2cc3ccoc3nc2=O)CC1CO (racemic)", "units": "µM", "valueReported": 125}
{"compound": "CN1OC(n2cc3cc(-c4ccccc4)oc3nc2=O)CC1CO (racemic)", "units": "µM", "valueReported": 125}
{"compound": "COc1ccc(-c2cc3cn(C4CC(CO)N(C)O4)c(=O)nc3o2)cc1 (racemic)", "units": "µM", "valueReported": 62.5}
{"compound": "CCCc1cc2cn(C3CC(CO)N(C)O3)c(=O)nc2o1 (stereo not given)", "units": "µM", "valueReported": 31.2}
{"compound": "CCCCCc1ccc(-c2cc3cn(C4CC(CO)N(C)O4)c(=O)nc3o2)cc1 (racemic)", "units": "µM", "valueReported": 3}

###

# testName: Cytotoxicity against African green monkey Vero cells assessed as change in cell morphology after 24 to 96 hrs by light microscopic analysis
# Format: cell-based
# conditions: chlorocebus sabaeus

{"molecule": "CN1OC(n2cc3cc(-c4ccccc4)oc3nc2=O)CC1CO (racemic)", "units": "µM", "qualifyingSign": "=", "MCC": 125}
{"molecule": "CCCc1cc2cn(C3CC(CO)N(C)O3)c(=O)nc2o1 (stereo not given)", "units": "µM", "qualifyingSign": ">", "MCC": 500}
{"molecule": "COc1ccc(-c2cc3cn(C4CC(CO)N(C)O4)c(=O)nc3o2)cc1 (racemic)", "units": "µM", "qualifyingSign": "=", "MCC": 62.5}
{"molecule": "CN1OC(n2cc3ccoc3nc2=O)CC1CO (racemic)", "units": "µM", "qualifyingSign": ">", "MCC": 500}
{"molecule": "CCCCCc1ccc(-c2cc3cn(C4CC(CO)N(C)O4)c(=O)nc3o2)cc1 (racemic)", "units": "µM", "qualifyingSign": "=", "MCC": 6}

###

# testName: Cytotoxicity against African green monkey BSC1 cells assessed as change in cell morphology after 24 to 96 hrs by light microscopic analysis
# Assay type: cell-based, BSC-1
# conditions: chlorocebus aethiops
The reader will find reported MCC values listed item by item below.

{"molecule": "COc1ccc(-c2cc3cn(C4CC(CO)N(C)O4)c(=O)nc3o2)cc1 (racemic)", "qualifyingSign": "=", "MCC (µM)": 62}
{"molecule": "CCCCCc1ccc(-c2cc3cn(C4CC(CO)N(C)O4)c(=O)nc3o2)cc1 (racemic)", "qualifyingSign": "=", "MCC (µM)": 6}
{"molecule": "CCCc1cc2cn(C3CC(CO)N(C)O3)c(=O)nc2o1 (stereo not given)", "qualifyingSign": ">", "MCC (µM)": 250}
{"molecule": "CN1OC(n2cc3ccoc3nc2=O)CC1CO (racemic)", "qualifyingSign": ">", "MCC (µM)": 250}
{"molecule": "CN1OC(n2cc3cc(-c4ccccc4)oc3nc2=O)CC1CO (racemic)", "qualifyingSign": ">", "MCC (µM)": 250}
